Where these numbers come from: patent US11518758B2

Assayed target: ULK1 kinase (Homo sapiens, UniProt O75385)
Construct: purchased Eurofins 14-959
Sequence (O75385 with tags, fused parts or gaps): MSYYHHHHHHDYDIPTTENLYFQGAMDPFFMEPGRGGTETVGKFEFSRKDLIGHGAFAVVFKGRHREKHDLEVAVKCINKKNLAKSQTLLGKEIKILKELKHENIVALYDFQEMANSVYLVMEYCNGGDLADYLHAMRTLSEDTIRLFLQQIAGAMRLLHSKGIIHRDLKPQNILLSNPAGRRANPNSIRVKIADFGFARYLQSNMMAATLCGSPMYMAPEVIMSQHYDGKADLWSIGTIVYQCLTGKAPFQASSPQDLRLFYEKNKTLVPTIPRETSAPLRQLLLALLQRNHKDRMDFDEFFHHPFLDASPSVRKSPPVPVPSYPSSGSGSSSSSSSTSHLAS
Assay summary: Biochemical assay for ULK1.2 (coupled pyruvate kinase/lactate dehydrogenase assay)
Applied conditions: 19 nM ULK1 (Eurofins), myelin basic protein, 1 mM ATP
pIC50: −log10 of the molar value.

Structure smiles: Cc1nn(C2CCN(C(C)C)CC2)cc1Nc1ncc(C(F)(F)F)c(NCCCN2CCCCCC2=O)n1
pIC50: 7.60 to 9.00
//
Structure smiles: Cc1nn(C2CN(CC(C)C)C2)cc1Nc1ncc(Cl)c(NCCCN2CCCCC2=O)n1
pIC50: < 6.30
//
Structure smiles: CN1CCC(n2cc(Nc3ncc(C(F)(F)F)c(NCCCN4CCCC4=O)n3)cn2)CC1
pIC50: 7.60 to 9.00
//
Structure smiles: Cc1nn([C@H]2CCNC2)cc1Nc1ncc(C(F)(F)F)c(NCCCN2CCCC2=O)n1
pIC50: 6.30 to 7.00
//
Structure smiles: CN1CCC(n2cc(Nc3ncc(C4CC4)c(NCCCN4CCN(C)C4=O)n3)cn2)CC1
pIC50: 6.30 to 7.00
//
Structure smiles: Cc1nn(CCN2CCCC2)cc1Nc1ncc(Cl)c(NCCCN2CCCC2=O)n1
pIC50: < 6.30
//
Structure smiles: [2H]C([2H])([2H])N1CCC(n2cc(Nc3ncc(Br)c(NCCCN4CCCCC4=O)n3)c(C)n2)CC1
pIC50: 7.60 to 9.00
//
Structure smiles: CC(C)N1CCC(n2cc(Nc3ncc(C(F)(F)F)c(NCCCN4CCCCC4=O)n3)cn2)CC1
pIC50: 7.60 to 9.00
//
Structure smiles: O=C1CCCCN1CCCNc1nc(Nc2cnn(C3CCNCC3)c2)ncc1Cl
pIC50: 7.60 to 9.00
//
Structure smiles: Cc1nn(C2CCN(C(C)C)CC2)cc1Nc1ncc(C(F)(F)F)c(NCCCN2CCOCCC2=O)n1
pIC50: 7.00 to 7.60
//
Structure smiles: CN(C)CCn1cc(Nc2ncc(C(F)(F)F)c(NCCCN3CCCCC3=O)n2)cn1
pIC50: 7.00 to 7.60
//
Structure smiles: Cc1nn([C@@H]2CCN(C)C2)cc1Nc1ncc(C(F)(F)F)c(NCCCN2CCCCC2=O)n1
pIC50: 7.60 to 9.00
//
Structure smiles: CC(C)CN1CC(n2cc(Nc3ncc(C(F)(F)F)c(NCCCN4CCCC4=O)n3)cn2)C1
pIC50: 6.30 to 7.00
//
Structure smiles: CC(C)CN1CC(n2cc(Nc3ncc(C(F)(F)F)c(NCCCN4CCCCCC4=O)n3)cn2)C1
pIC50: 7.60 to 9.00
//
Structure smiles: Cc1nn(C2CCNCC2)cc1Nc1ncc(Cl)c(NCCCN2CCCCCC2=O)n1
pIC50: 7.00 to 7.60
//
Structure smiles: Cc1nn([C@@H]2CCNC2)cc1Nc1ncc(C(F)(F)F)c(NCCCN2CCCC2=O)n1
pIC50: 6.30 to 7.00
//
Structure smiles: O=C1CCCCN1CCCNc1nc(Nc2cnn(C3CCN(CC4CC4)CC3)c2)ncc1Cl
pIC50: 7.60 to 9.00
//
Structure smiles: O=C1CCCCN1CCCNc1nc(Nc2cnn(C3CCNCC3)c2)ncc1C(F)(F)F
pIC50: 7.60 to 9.00
//
Structure smiles: Cc1nn(C2CCN(C3COC3)CC2)cc1Nc1ncc(C(F)(F)F)c(NCCCN2CCCCC2=O)n1
pIC50: 6.30 to 7.00
//
Structure smiles: Cc1nn(CCCN2CCCCC2)cc1Nc1ncc(C(F)(F)F)c(NCCCN2CCCCC2=O)n1
pIC50: 7.00 to 7.60
//
Structure smiles: Cc1nn(CCCN2CCOCC2)cc1Nc1ncc(C(F)(F)F)c(NCCCN2CCOCCC2=O)n1
pIC50: 6.30 to 7.00
//
Structure smiles: Cc1nn([C@@H]2CCN(C)C2)cc1Nc1ncc(C(F)(F)F)c(NCCCN2CCOCCC2=O)n1
pIC50: 7.60 to 9.00
//
Structure smiles: CCc1nn(C2CCN(CC)CC2)cc1Nc1ncc(C(F)(F)F)c(NCCCN2CCCCC2=O)n1
pIC50: 7.00 to 7.60
//
Structure smiles: Cc1nn(CCN2CCOCC2)cc1Nc1ncc(Br)c(NCCCN2CCCCC2=O)n1
pIC50: < 6.30
//
Structure smiles: CCN1CCC(n2cc(Nc3ncc(C(F)(F)F)c(NCCCN4CCCCC4=O)n3)c(C)n2)CC1
pIC50: 7.60 to 9.00
//
Structure smiles: CC1(C)CCC(=O)N1CCCNc1nc(Nc2cnn(C3CCN(C4CC4)CC3)c2)ncc1C1CC1
pIC50: < 6.30
//
Structure smiles: Cc1nn([C@@H]2CCN(C(C)C)C2)cc1Nc1ncc(C(F)(F)F)c(NCCCN2CCCCCC2=O)n1
pIC50: 7.60 to 9.00
//
Structure smiles: CC(C)CN1CC(n2cc(Nc3ncc(C(F)(F)F)c(NCCCN4CCCCC4=O)n3)cn2)C1
pIC50: 7.00 to 7.60
//
Structure smiles: CCc1nn(C2CCN(C(C)C)CC2)cc1Nc1ncc(C(F)(F)F)c(NCCCN2CCCCC2=O)n1
pIC50: 7.00 to 7.60
//
Structure smiles: Cc1nn(C2CCN(CCF)CC2)cc1Nc1ncc(C(F)(F)F)c(NCCCN2CCCCC2=O)n1
pIC50: 7.00 to 7.60
//
Structure smiles: Cc1nn(CCN2CCOCC2)cc1Nc1ncc(Cl)c(NCCCN2CCCC2=O)n1
pIC50: < 6.30
//
Structure smiles: Cc1nn(C2CCN(C(C)C)CC2)cc1Nc1ncc(Cl)c(NCCCN2CCCCCC2=O)n1
pIC50: 7.00 to 7.60
